Where do the numbers come from? From ChEMBL document CHEMBL3124893.

# ASSAYED TARGET: Adenosine receptor A3 (Homo sapiens, UniProt P0DMS8)
# Sequence (P0DMS8 whole entry): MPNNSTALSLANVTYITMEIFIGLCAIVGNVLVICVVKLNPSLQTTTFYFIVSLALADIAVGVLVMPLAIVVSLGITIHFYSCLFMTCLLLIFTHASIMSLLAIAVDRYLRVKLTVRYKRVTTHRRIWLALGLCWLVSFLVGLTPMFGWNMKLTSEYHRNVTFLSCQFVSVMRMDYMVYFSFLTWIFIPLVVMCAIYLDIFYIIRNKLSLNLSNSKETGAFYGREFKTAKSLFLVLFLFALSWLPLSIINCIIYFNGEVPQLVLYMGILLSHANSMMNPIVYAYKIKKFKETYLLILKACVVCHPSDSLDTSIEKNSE
# PROCEDURE DETAILS: Partial agonist activity at recombinant human adenosine A3 receptor expressed in CHO cells assessed as […] of forskolin-induced intracellular cAMP production preincubated for 45 mins followed by forskolin challenge measured after 15 mins by liquid scintillation counting analysis in presence of rolipram and adenosine deaminase
# Format: functional, cell-based
ASSAY READOUT: EC50
Answer shape: numeric part, then the unit.

Prompt: Look at this molecule and give its reported EC50. CCCCC#Cc1nc(NC)c2ncn([C@H]3[C@H](O)[C@H](O)[C@@H]4C[C@@H]43)c2n1
Completion: 45.8 nM
